# credit: patent US12441768B2

Listed next: entries and their corresponding EC50.
# tested on: Wnt-responsive promoter (TCF/LEF)
# assay protocol: Wnt-dependent luciferase reporter assay
Where a SMILES comes first, the peptide text is derived from it. [ ]: non-standard residue; d: D form. The star is where a group is joined. ξ: configuration not given here. ξIle = CC[C@H](C)C(N)C(=O)O; Piv = CC(C)(C)C(=O)*

Below, each entry is followed by its recorded EC50 result.
{"compound": "CC[C@H](C)[C@@H]1NC(=O)[C@H](CC(C)C)NC(=O)[C@H](Cc2ccccc2)NC(=O)[C@H](Cc2c[nH]c3ccccc23)NC(=O)[C@H](CCSC)NC(=O)[C@H](CCCNC(=N)N)NC(=O)[C@H](CO)NC(=O)[C@H](CCSC)NC(=O)[C@@H](N)CCCCNC(=O)CNC(=O)[C@H](CCCNC(=N)N)NC(=O)[C@H](Cc2c[nH]c3ccccc23)NC(=O)[C@H](Cc2ccccc2)NC(=O)[C@H](CO)NC1=O [compound 24] (HELM PEPTIDE1{K.M.S.R.M.W.F.L.I.S.F.W.R.G}$PEPTIDE1,PEPTIDE1,1:R3-14:R2$$$V2.0; bridges inferred)", "result": "> 30 µM"}
{"compound": "CC[C@H](C)C(NC(=O)[C@H](CC(C)C)NC(=O)C(NC(=O)[C@H](Cc1c[nH]c2ccccc12)NC(=O)[C@H](CCSC)NC(=O)C(C)(C)C)[C@@H](C)CC)C(=O)N[C@@H](CO)C(=O)N[C@@H](Cc1ccccc1)C(=O)N[C@@H](Cc1c[nH]c2ccccc12)C(=O)NCC(=O)O (stereo partly shown) [compound 224] (Piv-MW[ξIle]L[ξIle]SFWG-OH)", "result": "< 7.5 µM"}
{"compound": "CC[C@H](C)[C@H](NC(=O)[C@H](CC(C)C)NC(=O)[C@H](Cc1ccccc1)NC(=O)[C@H](Cc1c[nH]c2ccccc12)NC(=O)[C@H](CCCCN)NC(=O)[C@H](CCCNC(=N)N)NC(=O)[C@H](CO)NC(=O)[C@@H](N)CCCCN)C(=O)N[C@@H](CO)C(=O)N[C@@H](Cc1ccccc1)C(=O)N[C@@H](Cc1c[nH]c2ccccc12)C(N)=O [compound 93] (H-KSRKWFLISFW-NH2)", "result": "> 30 µM"}
{"compound": "CC[C@H](C)[C@@H]1NC(=O)[C@H](CC(C)C)NC(=O)[C@H](C2CCCCC2)NC(=O)[C@H](Cc2c[nH]c3ccccc23)NC(=O)[C@@H](N)CCCCNC(=O)C[C@@H](C(=O)O)NC(=O)[C@H](Cc2c[nH]c3ccccc23)NC(=O)[C@H](C)NC(=O)[C@H](CO)NC1=O [compound 204] (HELM PEPTIDE1{K.W.[O=C([C@@H](N[*:1])C1CCCCC1)[*:2]].L.I.S.A.W.D}$PEPTIDE1,PEPTIDE1,1:R3-9:R3$$$V2.0)", "result": "< 7.5 µM"}
{"compound": "CCOC[C@H](NC(=O)[C@H](CO)NC(=O)[C@@H](NC(=O)[C@H](CC(C)C)NC(=O)[C@H](Cc1ccccc1)NC(=O)[C@@H](N)Cc1c[nH]c2ccccc12)[C@@H](C)CC)C(=O)N[C@@H](Cc1c[nH]c2ccccc12)C(=O)O [compound 104] (H-WFLISS(Et)W-OH)", "result": "7.5 to 15 µM"}

Measured EC50, CC[C@H](C)[C@@H]1NC(=O)[C@H](CC(C)C)NC(=O)[C@H](Cc2ccccc2)NC(=O)[C@H](Cc2c[nH]c3ccccc23)NC(=O)[C@@H](N)CCCCNC(=O)CNC(=O)CC[C@@H](C(=O)NCC(=O)O)NC(=O)[C@H](Cc2c[nH]c3ccccc23)NC(=O)[C@H](Cc2ccccc2)NC(=O)[C@H](CS)NC1=O [compound 174] (HELM PEPTIDE1{K.W.F.L.I.C.F.W.E.G}|CHEM1{[O=C(CN[*:2])[*:1]]}$PEPTIDE1,CHEM1,1:R3-1:R1|PEPTIDE1,CHEM1,9:R3-1:R2$$$V2.0) : 7.5 to 15 µM

Measured EC50, CC[C@H](C)[C@H](NC(=O)[C@H](CC(C)C)NC(=O)[C@H](Cc1ccccc1)NC(=O)[C@@H](N)Cc1c[nH]c2ccccc12)C(=O)N[C@@H](CO)C(=O)N[C@@H](Cc1ccccc1)C(=O)N[C@@H](Cc1c[nH]c2ccccc12)C(=O)O [compound 110] (H-WFLISFW-OH) : 7.5 to 15 µM

Measured EC50, CC[C@H](C)[C@@H]1NC(=O)[C@H](CC(C)C)NC(=O)[C@H]([C@@H](C)CC)NC(=O)[C@H](Cc2c[nH]c3ccccc23)NC(=O)[C@@H](N)CCCCNC(=O)CC[C@@H](C(=O)O)NC(=O)[C@H](Cc2c[nH]c3ccccc23)NC(=O)[C@H](Cc2ccccc2)NC(=O)[C@H](CO)NC1=O [compound 182] (HELM PEPTIDE1{K.W.I.L.I.S.F.W.E}$PEPTIDE1,PEPTIDE1,1:R3-9:R3$$$V2.0) : 22.5 to 30 µM

Measured EC50, CCCC[C@H](N)C(=O)N[C@@H](Cc1c[nH]c2ccccc12)C(=O)N[C@@H](Cc1ccccc1)C(=O)N[C@@H](CC(C)C)C(=O)N[C@H](C(=O)N[C@@H](CS)C(=O)N[C@@H](Cc1ccccc1)C(=O)N[C@@H](Cc1c[nH]c2ccccc12)C(=O)NCC(=O)O)[C@@H](C)CC [compound 164] (HELM PEPTIDE1{[Nle].W.F.L.I.C.F.W.G}$$$$V2.0) : < 7.5 µM

Measured EC50, CC[C@H](C)[C@@H]1NC(=O)[C@H](CC(C)C)NC(=O)[C@H](Cc2ccccc2)NC(=O)[C@H](Cc2c[nH]c3ccccc23)NC(=O)[C@@H](NC(C)=O)CCCCNC(=O)CC[C@@H](C(=O)O)NC(=O)[C@H](Cc2c[nH]c3ccccc23)NC(=O)[C@H](C)NC(=O)[C@H](CO)NC1=O [compound 187] (HELM PEPTIDE1{[ac].K.W.F.L.I.S.A.W.E}$PEPTIDE1,PEPTIDE1,2:R3-10:R3$$$V2.0) : 7.5 to 15 µM
